meta.source: ChEMBL document CHEMBL1126387

# System tested: Phenylethanolamine N-methyltransferase (Bos taurus, UniProt P10938)
# Sequence (P10938 whole entry): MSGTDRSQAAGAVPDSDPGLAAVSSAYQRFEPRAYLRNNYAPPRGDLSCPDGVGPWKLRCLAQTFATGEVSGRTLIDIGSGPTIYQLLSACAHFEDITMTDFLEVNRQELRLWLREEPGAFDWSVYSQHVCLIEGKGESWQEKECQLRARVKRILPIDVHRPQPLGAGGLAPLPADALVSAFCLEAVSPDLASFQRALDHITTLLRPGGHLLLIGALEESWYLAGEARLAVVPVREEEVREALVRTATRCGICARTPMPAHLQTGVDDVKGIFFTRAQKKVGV

{"Compound": "CC(N)Cc1ccc(Cl)c(Cl)c1 (stereo unspecified)", "Ki (µM)": 6.7}
